Values compiled from patent US10787490B2.

# Assay Summary: Stability in simulated intestinal fluid (SIF)
# Assay type: in vitro ADME
# Design: dose or concentration left out as unconfirmed
# Run Parameters: simulated intestinal fluid (SIF) with pancreatin, pH 6.8; read-out: Stability (t1/2, hr) SIF (converted)
Reported Metric: half-life (h)
Give the quantity in h, number only.

Input CC(=O)N[C@@H]1CCSC[C@@H](C(=O)N[C@@H](Cc2ccc(OCCN)cc2)C(=O)N[C@@H](Cc2ccc3ccccc3c2)C(=O)NC2(C(=O)N[C@@H](CCC(=O)O)C(=O)N[C@@H](CC(N)=O)C(=O)N[C@@H](CC(N)=O)C(N)=O)CCOCC2)NC(=O)[C@H](CCC(N)=O)NC(=O)[C@H](Cc2c[nH]c3ccccc23)NC(=O)[C@H]([C@@H](C)O)NC(=O)[C@@H](CCC(N)=O)NC1=O . Output half-life: 11
